Provide the reported melting point of each item.

Recorded results for 5 compounds are shown here.
> print(dat)
                            smiles.notation  reported.result
1  COc1ccc(C(N)=O)c(OC)c1-c1ccc(C[C@H](NC(=O)c2c(Cl)cccc2Cl)C(=O)O)cc1    227 to 228 °C
2  COc1cc(Nc2nccc(-c3cccc(OCCO)c3)n2)cc(OC)c1OC            70 °C
3  Cc1c(-c2ccc(C(=O)O)cc2)ccc(-c2ccccc2)c1-c1ccc2c(c1)C(C)(C)CCC2(C)C    130 to 132 °C
4                     CSc1ccc2oc3ccccc3c2c1      85 to 87 °C
5                Nc1cc(Cl)c(S)cc1S(N)(=O)=O    192 to 195 °C

# ---- query compound ----
Return melting point for the following compound: Cc1c(NC(=O)c2ccc(CC(=O)C(C)C)cc2)ccc2cc(CN3CCCC3)cnc12 146 to 147 °C
